Collected Pain threshold value, Frey's hair values appear next to each entry.
test system: CFA rat model; assay: Pharmacodynamic experiment: Frey's hair pain threshold in CFA rat model; format: in vivo, SD rats; settings: 0.25 h after administration, oral 10 mg/kg, mean ± standard deviation
Provide only the numeric value, understood in g.

Known results for compounds:
| Compound | Pain threshold value, Frey's hair [g] |
| --- | --- |
| C[C@@]12CCCCC[C@@H](Cc3ccc(O)cc31)[C@@H]2NCCOCCOCCOCCOCCN[C@H]1[C@H]2CCCCC[C@]1(C)c1cc(O)ccc1C2 [JK-2215D03, Pentaethylene Glycol-Dezocine Conjugate] | 9.2 |
| C[C@@]12CCCCC[C@@H](Cc3ccc(O)cc31)[C@@H]2N [JK-2215D00, reference compound] | 9.8 |
| COCCOCCOCCOCCOCCOCCOc1ccc2c(c1)C1(C)CCCCCC(C2)C1N (stereo not shown) [JK-2215D01] | 8.7 |

Moving on to the next compound.
Pain threshold value, Frey's hair measured on COCCOCCOCCOCCOCCOCCN[C@H]1[C@H]2CCCCC[C@]1(C)c1cc(O)ccc1C2 [JK-2215D02] = 10.3

----------
test: Pharmacokinetic experiment: drug concentration in plasma of SD rats after oral administration (LC-MS/MS); conditions: male, SD, rat, po, 10 mg/kg
Reported Cmax by item:
Entry rule: numbers only, all in ng/mL.

| Compound | Data value |
| --- | --- |
| C[C@@]12CCCCC[C@@H](Cc3ccc(O)cc31)[C@@H]2NCCOCCOCCOCCOCCN[C@H]1[C@H]2CCCCC[C@]1(C)c1cc(O)ccc1C2 [JK-2215D03, Pentaethylene Glycol-Dezocine Conjugate] | 344 |

Now look at this one.
Briefly, Cmax measured for C[C@@]12CCCCC[C@@H](Cc3ccc(O)cc31)[C@@H]2N [JK-2215D00, reference compound] : 193

----------
Each item that follows carries a reported AUClast (Brain).
test: Pharmacokinetic experiment: drug concentration in brain tissue of SD rats after oral administration (LC-MS/MS); conditions: SD rats, oral, 10 mg/kg, brain tissue
The answer should read as a number with its unit following.

The examples below pair each entry with its known result.
| Compound | Readout name | Data value |
| --- | --- | --- |
| COCCOCCOCCOCCOCCOCCOc1ccc2c(c1)C1(C)CCCCCC(C2)C1N (stereo not shown) | AUClast (Brain) | 925 ng·h/g |
| COCCOCCOCCOCCOCCOCCN[C@H]1[C@H]2CCCCC[C@]1(C)c1cc(O)ccc1C2 | AUClast (Brain) | 993 ng·h/g |
| C[C@@]12CCCCC[C@@H](Cc3ccc(O)cc31)[C@@H]2N [JK-2215D00, reference compound] | AUClast (Brain) | 267 ng·h/g |

// field: AUClast (Brain); key: C[C@@]12CCCCC[C@@H](Cc3ccc(O)cc31)[C@@H]2NCCOCCOCCOCCOCCN[C@H]1[C@H]2CCCCC[C@]1(C)c1cc(O)ccc1C2 [JK-2215D03, Pentaethylene Glycol-Dezocine Conjugate] ; value = 813 ng·h/g

----------
# reported Tmax; entries follow
experiment: Pharmacokinetic experiment: drug concentration in plasma of SD rats after oral administration (LC-MS/MS); details: male, SD, rat, po, 10 mg/kg
Kindly provide the numeric value in h only, without the unit symbol.

| Compound | Tmax (h) |
| --- | --- |
| C[C@@]12CCCCC[C@@H](Cc3ccc(O)cc31)[C@@H]2N [JK-2215D00, reference compound] | 1 |

Okay, next one:
// C[C@@]12CCCCC[C@@H](Cc3ccc(O)cc31)[C@@H]2NCCOCCOCCOCCOCCN[C@H]1[C@H]2CCCCC[C@]1(C)c1cc(O)ccc1C2 [JK-2215D03, Pentaethylene Glycol-Dezocine Conjugate] : Tmax value = 2
